test system: Hs-578T; assay: Compound was evaluated for in vitro activity against Hs 578.T breast cancer cell lines (Human tumor cells ); format: functional, cell-based
experimental endpoint: IC50

Reference set, count: 2
compound | value observed
CN(Cc1cnc2nc(N)nc(N)c2n1)c1ccc(C(=O)N[C@@H](CCC(=O)O)C(=O)O)cc1 [METHOTREXATE] | > 1000 nM
Cc1c(CNc2ccc(C(=O)NC(CCCNC(=O)c3ccccc3C(=O)O)C(=O)O)cc2)cnc2nc(N)nc(N)c12 (stereo not drawn) | 100 nM

Next:
Q. Supply measured IC50 of Nc1nc(N)c2nc(CNc3ccc(C(=O)NC(CCCNC(=O)c4ccccc4C(=O)O)C(=O)O)cc3)cnc2n1 (stereo not drawn) in your reply.
A. > 100 nM

---

test system: MCF7; assay: Compound was evaluated for in vitro activity against MCF-7 breast cancer cell lines (Human tumor cells ); assay type: functional, cell-based
experimental endpoint: pIC50
Remember, pIC50 is on a log scale: it is -log10 of the molar concentration.

Q. Provide pIC50, recorded with MCF7, of Cc1c(CNc2ccc(C(=O)NC(CCCNC(=O)c3ccccc3C(=O)O)C(=O)O)cc2)cnc2nc(N)nc(N)c12 (stereo unspecified)
A. 9.15

---

Below, each of the compounds is paired with its reported pIC50 value.
system: COLO 205; test: Compound was evaluated for in vitro activity against COLO 205 Colon cell lines (Human tumor cells ); type: functional, cell-based
# pIC50 = -log10(concentration in molar units)

compound | pIC50
CN(Cc1cnc2nc(N)nc(N)c2n1)c1ccc(C(=O)N[C@@H](CCC(=O)O)C(=O)O)cc1 [METHOTREXATE] | 6.06

Please examine the following record next.
Q. Output pIC50 of Cc1c(CNc2ccc(C(=O)NC(CCCNC(=O)c3ccccc3C(=O)O)C(=O)O)cc2)cnc2nc(N)nc(N)c12 (configuration not stated)
A. 8.17

---

Entries with reported pKi on Dihydrofolate reductase (Homo sapiens)
Sequence (P00374 whole entry): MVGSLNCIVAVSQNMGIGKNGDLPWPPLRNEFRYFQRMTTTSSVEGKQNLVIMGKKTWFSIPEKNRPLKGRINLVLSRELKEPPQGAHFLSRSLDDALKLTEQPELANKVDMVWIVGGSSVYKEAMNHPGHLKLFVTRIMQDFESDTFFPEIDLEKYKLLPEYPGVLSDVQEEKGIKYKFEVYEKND
Please report pKi as the negative decimal logarithm of the molar concentration, giving only the number.

Answered examples (5):
compound | experimental endpoint | value observed
Nc1nc(N)c2nc(CNc3ccc(C(=O)NC(CCCNC(=O)c4ccccc4C(=O)O)C(=O)O)cc3)cnc2n1 (stereo unspecified) | pKi | 12.46
Cc1c(CNc2ccc(C(=O)NC(CCCNC(=O)c3ccccc3C(=O)O)C(=O)O)cc2)cnc2nc(N)nc(N)c12 (stereo unspecified) | pKi | 12.40
Cc1c(CNc2ccc(C(=O)NC(CCCNC(=O)c3ccccc3C(=O)O)C(=O)O)cc2)ccc2nc(N)nc(N)c12 (stereo unspecified) | pKi | 13.00
Nc1nc(N)c2cc(CNc3ccc(C(=O)NC(CCCNC(=O)c4ccccc4C(=O)O)C(=O)O)cc3)cnc2n1 (stereo unspecified) | pKi | 12.39
Nc1nc(N)c2c(Cl)c(CNc3ccc(C(=O)NC(CCCNC(=O)c4ccccc4C(=O)O)C(=O)O)cc3)ccc2n1 (stereo unspecified) | pKi | 12.96

Q. Retrieve pKi on Dihydrofolate reductase (Homo sapiens); query Nc1nc(N)c2nc(CNc3ccc(C(=O)NC(CCCNC(=O)c4ccccc4C(=O)O)C(=O)O)cc3)ccc2n1 (stereo unspecified)
A. 12.72

---

system: 786-0; assay: Compound was evaluated for in vitro activity against 786-0 kidney cell lines (Human tumor cells ); format: functional, cell-based
experimental endpoint: IC50 (nM)
A number alone suffices; assume nM.

Q. Identify measured IC50 corresponding to Nc1nc(N)c2nc(CNc3ccc(C(=O)NC(CCCNC(=O)c4ccccc4C(=O)O)C(=O)O)cc3)cnc2n1 (configuration not stated)
A. 0.5

---

tested on: NCI-H23; assay: Compound was evaluated for in vitro activity against NCI-H23 lung cancer cell lines (Human tumor cells ); format: functional, cell-based
Each item that follows carries a reported pIC50.
For clarity, pIC50 is expressed as the negative log10 of concentration in mol/L.

molecule | pIC50
Nc1nc(N)c2nc(CNc3ccc(C(=O)NC(CCCNC(=O)c4ccccc4C(=O)O)C(=O)O)cc3)cnc2n1 (configuration not stated) | 8.59

// below: pIC50 requested for another molecule
Q. Check NCI-H23 data and give pIC50 for Cc1c(CNc2ccc(C(=O)NC(CCCNC(=O)c3ccccc3C(=O)O)C(=O)O)cc2)cnc2nc(N)nc(N)c12 (configuration not stated) .
A. 8.82

---

test system: HCT-15; experiment: Compound was evaluated for in vitro activity against HCT-15 Colon cell lines (Human tumor cells ); format: functional, cell-based
# reported pIC50; entries follow
On this scale, pIC50 is minus log10 of a concentration expressed in M (mol/L).

compound | experimental endpoint | value observed
Cc1c(CNc2ccc(C(=O)NC(CCCNC(=O)c3ccccc3C(=O)O)C(=O)O)cc2)cnc2nc(N)nc(N)c12 (configuration not stated) | pIC50 | 9.35

Switching to the query record.
Q. Provide pIC50 value for the following compound: Nc1nc(N)c2nc(CNc3ccc(C(=O)NC(CCCNC(=O)c4ccccc4C(=O)O)C(=O)O)cc3)cnc2n1 (configuration not stated)
A. 9.22

---

Entries and their pIC50
test system: SK-MEL-2; experiment: Compound was evaluated for in vitro activity against SK-MEL-2 Melanoma cell lines (Human tumor cells ); format: functional, cell-based
pIC50: −log10 of the molar value.

Please review the entries below; each comes with its answer.
molecule | pIC50
Nc1nc(N)c2nc(CNc3ccc(C(=O)NC(CCCNC(=O)c4ccccc4C(=O)O)C(=O)O)cc3)cnc2n1 (stereo not drawn) | < 7.00
Cc1c(CNc2ccc(C(=O)NC(CCCNC(=O)c3ccccc3C(=O)O)C(=O)O)cc2)cnc2nc(N)nc(N)c12 (stereo not drawn) | < 6.00

# context switch: different molecule, same pIC50
Q. GET pIC50 | system: SK-MEL-2 | item: CN(Cc1cnc2nc(N)nc(N)c2n1)c1ccc(C(=O)N[C@@H](CCC(=O)O)C(=O)O)cc1 [METHOTREXATE]
A. < 6.00
